System: symmetrical dimethylation of arginine (Di-Methyl Histone H4 Arginine 3) in cell line TE11
ASSAY DETAILS: Revised PRMT5 Biomarker Assay
TEST CONTEXT: Homo sapiens, TE-11; TE11 cells, 72 hours incubation, immunofluorescence, corrected for cell number (Hoechst 33342), plate reader based
Catalogue of IC50 values
RESULT TYPE: IC50 (µM)

MOLECULE: CC(=O)N1CCC(Nc2cc(C(=O)NC[C@@H](O)CNC3Cc4ccccc4C3)ccn2)CC1 [Compound 56]
RESULT TYPE: IC50
VALUE UNIT: µM
VALUE OBSERVED: 0.007

MOLECULE: CCOc1cc(C(=O)N2C3CCCC2COC3)ccc1C(=O)NC[C@@H](O)CNC1Cc2ccccc2C1 [Compound 135]
RESULT TYPE: IC50
VALUE UNIT: µM
VALUE OBSERVED: 0.0003

MOLECULE: O=C(NC[C@@H](O)CNC1Cc2ccccc2C1)c1ccc(C(=O)N2CCOCC2)cc1 [Compound 15]
RESULT TYPE: IC50
VALUE UNIT: µM
VALUE OBSERVED: 0.025

---

TESTED ON: Full-length PRMT5 enzyme co-expressed with MEP50 (Homo sapiens (Human), UniProt O14744)
Sequence (O14744 whole entry): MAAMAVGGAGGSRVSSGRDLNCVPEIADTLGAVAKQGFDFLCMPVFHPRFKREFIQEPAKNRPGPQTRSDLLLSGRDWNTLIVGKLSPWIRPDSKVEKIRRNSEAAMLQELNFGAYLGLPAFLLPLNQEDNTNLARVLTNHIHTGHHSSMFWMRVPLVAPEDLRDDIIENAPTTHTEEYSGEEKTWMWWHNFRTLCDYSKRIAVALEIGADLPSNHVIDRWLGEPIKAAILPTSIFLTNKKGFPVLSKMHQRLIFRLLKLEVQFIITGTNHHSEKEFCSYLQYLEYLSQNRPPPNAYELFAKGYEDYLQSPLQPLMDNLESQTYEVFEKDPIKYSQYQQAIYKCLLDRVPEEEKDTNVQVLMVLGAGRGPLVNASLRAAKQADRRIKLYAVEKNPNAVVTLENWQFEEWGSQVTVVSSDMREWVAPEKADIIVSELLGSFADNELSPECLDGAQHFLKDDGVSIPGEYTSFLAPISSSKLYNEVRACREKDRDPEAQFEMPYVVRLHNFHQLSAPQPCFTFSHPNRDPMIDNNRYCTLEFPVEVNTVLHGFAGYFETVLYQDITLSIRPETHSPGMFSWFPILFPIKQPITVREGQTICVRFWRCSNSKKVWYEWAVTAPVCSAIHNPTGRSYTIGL
Sequence (Q9BQA1 whole entry partner): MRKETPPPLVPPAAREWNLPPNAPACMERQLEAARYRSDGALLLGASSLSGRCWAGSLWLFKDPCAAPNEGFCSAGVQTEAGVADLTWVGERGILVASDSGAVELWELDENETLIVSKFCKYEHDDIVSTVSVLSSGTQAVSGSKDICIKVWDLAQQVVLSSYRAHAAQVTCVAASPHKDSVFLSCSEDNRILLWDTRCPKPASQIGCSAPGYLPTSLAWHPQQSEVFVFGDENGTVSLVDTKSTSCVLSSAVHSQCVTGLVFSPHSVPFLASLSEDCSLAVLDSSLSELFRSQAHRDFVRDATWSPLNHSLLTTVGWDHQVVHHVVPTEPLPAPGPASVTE
ASSAY DETAILS: Revised PRMT5 Biochemical Assay
TEST CONTEXT: 1 μM histone H4 derived peptide substrate, 1 μM S-Adenosyl methionine, 4 hours at 37 degree Celsius, Transcreener EPIGEN fluorescence polarisation
Measured IC50, listed per entry.

COMPOUND: O=C(NCC(O)CNC1Cc2ccccc2C1)c1ccn(Cc2ccccc2)c(=O)c1 (racemic) [Compound 82]
VALUE UNIT: µM
IC50: 1.81
//
COMPOUND: O=C(NC[C@@H](O)CNC1Cc2ccccc2C1)c1ccc(C(=O)N2[C@@H]3CCC[C@H]2COC3)cc1 [Compound 136]
VALUE UNIT: µM
IC50: 0.05
//
COMPOUND: NC(CNC(=O)c1ccc(C(=O)N2C3CCC2COC3)cc1)CNC1Cc2ccccc2C1 (stereo not shown) [Compound 106]
VALUE UNIT: µM
IC50: 24.3
//
COMPOUND: O=C(NC[C@@H](O)CNC1Cc2ccccc2C1)c1cccc2ncsc12 [Compound 113]
VALUE UNIT: µM
IC50: 4.15

---

System: symmetrical dimethylation of arginine (Di-Methyl Histone H4 Arginine 3) in cell line TE11
ASSAY DETAILS: Revised PRMT5 Biomarker Assay
TEST CONTEXT: Homo sapiens, TE-11; TE11 cells, 72 hours incubation, immunofluorescence, corrected for cell number (Hoechst 33342), plate reader based
IC50 strictly less than 0.02 µM = True. Otherwise False.

COMPOUND: CCOc1cc(C(=O)N2CCS(=O)(=O)CC2)ccc1C(=O)NC[C@@H](O)CNC1Cc2ccccc2C1
LABEL: False
--
COMPOUND: CC(=O)N1CCC(Nc2cc(C(=O)NCC(O)CNC3Cc4ccccc4C3)ccn2)CC1 (stereo not shown)
LABEL: False
--
COMPOUND: C[C@H]1COCCN1C(=O)c1ccc(C(=O)NC[C@@H](O)CNC2Cc3ccccc3C2)cc1
LABEL: False
--
COMPOUND: O=C(NC[C@@H](O)CNC1Cc2ccccc2C1)c1ccc(C(=O)N2C3CCC2COC3)cc1
LABEL: True
--
COMPOUND: CCOc1cc(C(=O)N2C3CCC2COC3)ccc1C(=O)NC[C@@H](O)CNC1Cc2ccccc2C1
LABEL: True
--
COMPOUND: O=C(NC[C@@H](O)CNC1Cc2ccccc2C1)c1ccc(C(=O)N2C3CCC2COC3)cc1F
LABEL: True
--
COMPOUND: CCOc1cc(C(=O)N2CCOC[C@@H]2CC)ccc1C(=O)NC[C@@H](O)CNC1Cc2ccccc2C1
LABEL: True
--
COMPOUND: O=C(NCC(O)CNC1Cc2ccccc2C1)c1ccc(C(=O)N2C3CCC2COC3)cc1 (stereo not shown)
LABEL: False
--
COMPOUND: CCOc1cc(C(=O)N2CCOCC2)ccc1C(=O)NC[C@@H](O)CNC1Cc2ccccc2C1
LABEL: True
--
COMPOUND: O=C(NC[C@@H](O)CNC1Cc2ccccc2C1)c1ccc(C(=O)N2C3CCC2COC3)cc1Cl
LABEL: True
--
COMPOUND: CCOc1cc(C(=O)N2CCOC[C@H]2C)ccc1C(=O)NC[C@@H](O)CNC1Cc2ccccc2C1
LABEL: True
--
COMPOUND: CCOc1cc(C(=O)N2C[C@H]3C[C@@H]2CO3)ccc1C(=O)NC[C@@H](O)CNC1Cc2ccccc2C1
LABEL: True
--
COMPOUND: CC(=O)N1CCC(Nc2cncc(C(=O)NCC(O)CNC3Cc4ccccc4C3)c2)CC1 (stereo not shown)
LABEL: False
--
COMPOUND: O=C(NCC(O)CNC1Cc2ccccc2C1)c1ccc(C(=O)N2CCCCC2)cc1 (stereo not shown)
LABEL: False
--
COMPOUND: COc1cc(C(=O)N2CCOCC2)ccc1C(=O)NC[C@@H](O)CNC1Cc2ccccc2C1
LABEL: False
--
COMPOUND: O=C(NC[C@@H](O)CNC1Cc2ccccc2C1)c1ccc(C(=O)N2CC3CCC(C2)O3)cc1
LABEL: True

---

TESTED ON: Full-length PRMT5 enzyme co-expressed with MEP50 (Homo sapiens (Human), UniProt O14744)
ASSAY DETAILS: PRMT5 Biochemical Assay
TEST CONTEXT: 200 nM histone H4 derived peptide substrate, 1 μM S-Adenosyl methionine, 4 hours at 37° C, Transcreener EPIGEN fluorescence polarisation

COMPOUND: O=C(NCC(O)CNC1Cc2ccccc2C1)c1ccc(C(=O)N2CCOCC2)cc1F (stereo not drawn)
VALUE UNIT: µM
IC50: 0.434
--
COMPOUND: CN(CC(O)CNC(=O)c1ccc(Cl)cc1)C1CCc2ccccc2C1 (stereo not drawn)
VALUE UNIT: µM
IC50: 24.9
--
COMPOUND: O=C(NCCC(O)CNC1Cc2ccccc2C1)c1ccc(Cl)cc1 (stereo not drawn)
VALUE UNIT: µM
IC50: 4.43
--
COMPOUND: Cc1nc(-c2ccc(C(F)(F)F)cc2)sc1C(=O)NC[C@H](O)CNC1Cc2ccccc2C1
VALUE UNIT: µM
IC50: 0.309
--
COMPOUND: O=C(NCC(O)CNC1Cc2ccccc21)c1ccc(Cl)cc1 (stereo not drawn)
VALUE UNIT: µM
IC50: 41.1
--
COMPOUND: Cn1cc(Oc2ccc(C(=O)NC[C@H](O)CNC3Cc4ccccc4C3)cc2)cn1
VALUE UNIT: µM
IC50: 0.634
--
COMPOUND: O=C(NCC(O)CNC1Cc2ccccc2C1)c1cccc(-c2ccccc2)c1 (stereo not drawn)
VALUE UNIT: µM
IC50: 2.22
--
COMPOUND: O=C(NCC(O)CNC1CCc2ccccc2C1)c1ccc(Cl)cc1 (stereo not drawn)
VALUE UNIT: µM
IC50: 0.905
--
COMPOUND: O=C(NCC(O)CNC1Cc2ccc(Br)cc2C1)c1ccc(Cl)cc1 (stereo not drawn)
VALUE UNIT: µM
IC50: 69.4

---

TESTED ON: Full-length PRMT5 enzyme co-expressed with MEP50 (Homo sapiens (Human), UniProt O14744)
ASSAY DETAILS: Revised PRMT5 Biochemical Assay
TEST CONTEXT: 1 μM histone H4 derived peptide substrate, 1 μM S-Adenosyl methionine, 4 hours at 37 degree Celsius, Transcreener EPIGEN fluorescence polarisation
pIC50: −log10 of the molar value.
Classification field: enter Criterion met for pIC50 values not below 6, Criterion not met for values below it.

COMPOUND: O=C(NC[C@@H](O)CNC1Cc2ccccc2C1)c1ccc(C(=O)N2CC3(COC3)C2)cc1 [Compound 66]
LABEL: Criterion not met
--
COMPOUND: O=C(NC[C@@H](O)CNC1Cc2ccccc2C1)c1ccc(C(=O)N2CCC(CO)CC2)cc1 [Compound 61]
LABEL: Criterion met
--
COMPOUND: CCOc1cc(C(=O)N2CCOCC2)c(C)cc1C(=O)NC[C@@H](O)CNC1Cc2ccccc2C1 [Compound 122]
LABEL: Criterion met
--
COMPOUND: CC(=O)N1CCC(Nc2cc(C(=O)NCC(O)CNC3Cc4ccccc4C3)ncn2)CC1 (centres unmarked) [Compound 59]
LABEL: Criterion met
--
COMPOUND: CC(=O)N1CCC(Nc2cc(C(=O)NC[C@H](O)CNC3Cc4ccccc4C3)ccn2)CC1 [Compound 55]
LABEL: Criterion met
--
COMPOUND: O=C(NC[C@@H](O)CNC1Cc2ccccc2C1)c1ccccc1C(F)(F)F [Compound 118]
LABEL: Criterion not met
--
COMPOUND: CCOc1nc(C(=O)N2C3CCC2COC3)ccc1C(=O)NC[C@@H](O)CNC1Cc2ccccc2C1 [Compound 115]
LABEL: Criterion met
--
COMPOUND: CCOc1cc(-c2nnc(C)o2)ccc1C(=O)NC[C@@H](O)CNC1Cc2ccccc2C1 [Compound 116]
LABEL: Criterion met
